Reference for the values: patent US10597388B2

- System: lambsquarters (Chenopodium album)
- assay: Test C greenhouse herbicide test, pre- and postemergence
- Assay type: in vivo
- studyConditions: Preemergence, 31 g ai/ha; scale 0 to 100, 0 is no effect, 100 is complete control

smilesRecord	Plant response rating, Lambsquarters
CSCC(=O)Oc1c(C)nn(C)c(=O)c1-c1cccc2ccccc12	98
COC(=O)Oc1c(C)nn(C)c(=O)c1-c1c(C)sc2c(C)cc(C)cc12	75
Cc1ccc2sc(C)c(-c3c(O)c(C)nn(C)c3=O)c2c1	80
CCCC(=O)Oc1c(C)nn(C)c(=O)c1-c1c(C)sc2c(C)cc(C)cc12	90

* * *

- Test system: wheat (winter wheat, Triticum aestivum)
- assay: Test C greenhouse herbicide test, pre- and postemergence
- Format: in vivo
- studyConditions: postemergence, 125 g ai/ha; scale 0 to 100, 0 no effect, 100 complete control
Entries annotated with measured Wheat plant response rating

molecule	targetDesc	Wheat plant response rating
CC(=O)Oc1c(Br)nn(C)c(=O)c1-c1c(C)ccc2ccccc12 [Compound 129]	wheat (winter wheat, Triticum aestivum)	40
CC(=O)Oc1c(C)nn(C)c(=O)c1-c1c([N+](=O)[O-])ccc2ccccc12 [Compound 164]	wheat (winter wheat, Triticum aestivum)	10
CCC(=O)Oc1c(C)nn(C)c(=O)c1-c1ccc(Br)c2ccccc12 [Compound 133]	wheat (winter wheat, Triticum aestivum)	55
COC(=O)Oc1cnn(C)c(=O)c1-c1c(C)ccc2ccccc12 [Compound 143]	wheat (winter wheat, Triticum aestivum)	15
COc1nn(C)c(=O)c(-c2c(C)ccc3ccccc23)c1OC(C)=O [Compound 138]	wheat (winter wheat, Triticum aestivum)	80
CC(=O)Oc1c(C)nn(C)c(=O)c1-c1c(C)cc(C)c2ccccc12 [Compound 153]	wheat (winter wheat, Triticum aestivum)	10

* * *

- Test system: waterhemp (common waterhemp, Amaranthus rudis)
- assay: Test E greenhouse herbicide test, pre- and postemergence
- Assay type: in vivo
- studyConditions: Preemergence, 31 g ai/ha; scale 0 to 100, 0 no effect, 100 complete control

smilesRecord	Plant response rating, Waterhemp
Cc1cc(C)c2sc(C)c(-c3c(OC(=O)OCCCl)c(C)nn(C)c3=O)c2c1	35
CC(=O)Oc1c(C)nn(C)c(=O)c1-c1c(C)sc2ccc(C)cc12	100
Cc1ccc2sc(C)c(-c3c(O)c(C)nn(C)c3=O)c2c1	90
CCOC(=O)Oc1c(C)nn(C)c(=O)c1-c1c(C)sc2ccc(C)cc12	85

* * *

Entries annotated with measured Plant response rating, Oilseed Rape
- Test system: oilseed rape (Brassica napus)
- assay: Test C greenhouse herbicide test, pre- and postemergence
- Format: in vivo
- studyConditions: Postemergence, 250 g ai/ha; scale 0 to 100, 0 no effect, 100 complete control; 13 to 15 d

smilesRecord	Plant response rating, Oilseed Rape
CCC(=O)Oc1c(Cl)nn(C)c(=O)c1-c1c(C)sc2ccc(Cl)cc12	100
CC(=O)Oc1c(C)nn(C)c(=O)c1-c1c(C)oc2c(C)cc(C)cc12	0
CCC(=O)Oc1c(C)nn(C)c(=O)c1-c1c(C)sc2ccc(C)cc12	0
CCOC(=O)Oc1c(C)nn(C)c(=O)c1-c1c(CC)ccc2ccccc12	50
CC(=O)Oc1c(C)nn(C)c(=O)c1-c1ccc(F)c2ccccc12	5
CCOC(=O)Oc1c(C)nn(C)c(=O)c1-c1c(C)ccc2ccccc12	85
CCC(=O)Oc1c(C)nn(C)c(=O)c1-c1c(C)sc2ccc(Cl)cc12	95

* * *

- Tested on: pigweed (Amaranthus retroflexus)
- assay: Test A greenhouse herbicide test, pre- and postemergence
- Assay type: in vivo
- studyConditions: Postemergence, 500 g ai/ha; 0 to 100 scale, 0 is no effect, 100 is complete control
resultType: Pigweed plant response rating

smilesRecord	targetDesc	resultType	obsValue
Cc1cc(C)c2ccccc2c1-c1c(O)cnn(C)c1=O	pigweed (Amaranthus retroflexus)	Pigweed plant response rating	90
CCOC(=O)Oc1c(C)nn(C)c(=O)c1-c1c(C)sc2ccc(C)cc12	pigweed (Amaranthus retroflexus)	Pigweed plant response rating	80
COc1nn(C)c(=O)c(-c2c(C)ccc3ccccc23)c1OC(=O)OC(C)C	pigweed (Amaranthus retroflexus)	Pigweed plant response rating	90
COc1ccc2ccccc2c1-c1c(O)c(C)nn(C)c1=O	pigweed (Amaranthus retroflexus)	Pigweed plant response rating	100
Cc1ccc(-c2c(O)c(Br)nn(C)c2=O)c2ccccc12	pigweed (Amaranthus retroflexus)	Pigweed plant response rating	30
CCc1ccc2ccccc2c1-c1c(OC(=O)OC(C)C)c(C)nn(C)c1=O	pigweed (Amaranthus retroflexus)	Pigweed plant response rating	80
CCC(=O)Oc1c(C)nn(C)c(=O)c1-c1c(C)sc2ccc(C)cc12	pigweed (Amaranthus retroflexus)	Pigweed plant response rating	100
C#CCOC(=O)Oc1c(C)nn(C)c(=O)c1-c1c(C)sc2ccc(C)cc12	pigweed (Amaranthus retroflexus)	Pigweed plant response rating	90
CC(=O)Oc1c(C)nn(C)c(=O)c1-c1c(C)sc2c(C)cc(C)cc12	pigweed (Amaranthus retroflexus)	Pigweed plant response rating	100
Cc1cc(C)c2sc(C)c(-c3c(OC(=O)C(C)(C)C)c(C)nn(C)c3=O)c2c1	pigweed (Amaranthus retroflexus)	Pigweed plant response rating	10

* * *

- System: crabgrass, Brazilian (Brazilian crabgrass, Digitaria horizontalis)
- assay: Test E greenhouse herbicide test, pre- and postemergence
- Assay type: in vivo
- studyConditions: 125 g ai/ha, Postemergence; scale 0 to 100 (0 no effect, 100 complete control)
Entries annotated with measured Plant response rating, Crabgrass, Brazil
resultType: Plant response rating, Crabgrass, Brazil

smilesRecord	resultType	obsValue
CSCC(=O)Oc1c(C)nn(C)c(=O)c1-c1cccc2ccccc12	Plant response rating, Crabgrass, Brazil	50
CC(=O)Oc1c(C)nn(C)c(=O)c1-c1c(C)sc2ccc(C)cc12	Plant response rating, Crabgrass, Brazil	50
CCC(=O)Oc1c(C)nn(C)c(=O)c1-c1c(C)sc2ccc(C)cc12	Plant response rating, Crabgrass, Brazil	40
CCC(=O)Oc1c(C)nn(C)c(=O)c1-c1c(C)sc2ccc(Cl)cc12	Plant response rating, Crabgrass, Brazil	50
CC(=O)Oc1c(C)nn(C)c(=O)c1-c1c(C)cc(C)c2ccccc12	Plant response rating, Crabgrass, Brazil	40

* * *

- Tested on: kochia (Kochia scoparia)
- assay: Test E greenhouse herbicide test, pre- and postemergence
- Format: in vivo
- studyConditions: Preemergence, 250 g ai/ha; visual, scale 0 no effect to 100 complete control
Entries annotated with measured Plant response rating, Kochia

smilesRecord	targetDesc	Plant response rating, Kochia
CCOC(=O)Oc1c(C)nn(C)c(=O)c1-c1c(CC)ccc2ccccc12	kochia (Kochia scoparia)	65
CCC(=O)Oc1c(C)nn(C)c(=O)c1-c1c(C)sc2c(C)cc(C)cc12	kochia (Kochia scoparia)	100
CCOC(=O)Oc1c(C)nn(C)c(=O)c1-c1c(C)sc2ccc(C)cc12	kochia (Kochia scoparia)	100
C#CCOC(=O)Oc1c(C)nn(C)c(=O)c1-c1c(C)sc2ccc(C)cc12	kochia (Kochia scoparia)	100

* * *

Entries annotated with measured Plant response rating (scale of 0 to 100), Radish, Wild
- Test system: radish, wild (wild radish, Raphanus raphanistrum)
- assay: Test D controlled growth environment herbicide test, pre- and postemergence
- Type: in vivo
- studyConditions: Preemergence, 31 g ai/ha
resultType: Plant response rating (scale of 0 to 100), Radish, Wild

smilesRecord	obsValue
CC(=O)Oc1c(C)nn(C)c(=O)c1-c1c(C)sc2c(C)cc(C)cc12	0
COC(=O)Oc1c(C)nn(C)c(=O)c1-c1c(C)sc2c(C)cc(C)cc12	0
Cc1nn(C)c(=O)c(-c2c(C)sc3ccc(Cl)cc23)c1O	95
Cc1ccc2ccc(C)c(-c3c(O)c(C)nn(C)c3=O)c2c1	55
CCC(=O)Oc1c(C)nn(C)c(=O)c1-c1c(C)sc2ccc(Cl)cc12	25
COc1nn(C)c(=O)c(-c2c(C)ccc3ccccc23)c1OC(=O)OC(C)C	0
CCOC(=O)Oc1c(C)nn(C)c(=O)c1-c1c(C)sc2c(C)cc(C)cc12	30
Cc1ccc(-c2c(O)c(Br)nn(C)c2=O)c2ccccc12	0
C#CCOC(=O)Oc1c(C)nn(C)c(=O)c1-c1c(C)sc2ccc(C)cc12	45
CC(=O)Oc1c(C)nn(C)c(=O)c1-c1c(C)sc2ccc(C)cc12	0

* * *

Entries annotated with measured Plant response rating, Barley, Spring
- Test system: barley, spring (spring barley, Hordeum vulgare)
- assay: Test D controlled growth environment herbicide test, pre- and postemergence
- Assay type: in vivo
- studyConditions: Preemergence, 125 g ai/ha; scale 0 to 100 (0 no effect, 100 complete control)

smilesRecord	Plant response rating, Barley, Spring
Cc1ccc2sc(C)c(-c3c(O)c(C)nn(C)c3=O)c2c1	10
COc1nn(C)c(=O)c(-c2c(C)ccc3ccccc23)c1OC(=O)OC(C)C	0
Cc1ccc(-c2c(O)c(Br)nn(C)c2=O)c2ccccc12	0
Cc1cc(C)c2sc(C)c(-c3c(OC(=O)OCCCl)c(C)nn(C)c3=O)c2c1	0
CCC(=O)Oc1c(C)nn(C)c(=O)c1-c1c(C)sc2ccc(Cl)cc12	5
CCC(=O)Oc1c(C)nn(C)c(=O)c1-c1c(C)sc2c(C)cc(C)cc12	0
